# measurement.description: qHTS assay for measurement of the activity of small molecule inhibitors on Zika virus induced Caspase-3 activity in human astrocytoma cells (AID 1224859)
# conditions: SNB-19 ZIKV-induced caspase-3/7, luminescence, 6 h; series mostly up to 45.7 µM
Active and inactive are the calls of the source. Calls come from the whole dose curve; as a rule, active = well fitted inhibition curve with a large enough effect; inconclusive = small, poorly fitted or top-dose-only effect; inactive = no such curve, though single readings can be large or run the other way.
property.measured: activity change, negative = inhibition

Illustrative cases are given below, each with its answer.
molecule | property.measured | result
CCC(CC)(CC(=O)Nc1cccc(/C=C/c2nc(C3CCC3)cs2)c1)C(=O)O | activity change, negative = inhibition | inactive
CN1CCN(C2=Nc3ccccc3Sc3ccc(Cl)cc32)CC1 | activity change, negative = inhibition | inactive
Cc1cc(-c2ccccc2)nnc1NCCN1CCOCC1 | activity change, negative = inhibition | inactive
CCOc1ccccc1C(N)=O | activity change, negative = inhibition | inactive
CC(=O)O[C@]1(C(C)=O)CC[C@H]2[C@@H]3C=C(Cl)C4=CC(=O)CC[C@]4(C)[C@H]3CC[C@@]21C | activity change, negative = inhibition | inactive

Given CC[N+](C)(CC)CCOC(=O)C(O)(c1ccccc1)C1CCCCC1 (stereo not given) , state its recorded activity change, negative = inhibition.
inactive

Quick one: "CN=C(N)NCCC[C@H](N)C(=O)O"
inactive

What would you report for "COc1ccc(C(Cl)=C(c2ccc(OC)cc2)c2ccc(OC)cc2)cc1" ?
inactive

Same question, "O=C1OC2(c3ccccc31)c1cc(Br)c(O)c(Br)c1Oc1c2cc(Br)c(O)c1Br" this time
inactive

What do we get for CN(C)CCOC(=O)C(c1ccccc1)C1(O)CCCC1 (stereo not given) ?
inactive

Moving on to "C#C[C@]1(OC(C)=O)CC[C@H]2[C@@H]3CCC4=C/C(=N/O)CC[C@@H]4[C@H]3CC[C@@]21CC"
inactive

Same question for "CCN(CC)CCOC(=O)C1(c2ccccc2)CCCC1" please.
inactive

Repeat for the following molecule: C[N+]1(CC2COC(c3ccccc3)(C3CCCCC3)O2)CCCCC1 (stereo not given)
inactive
